test system: RH tachyzoites of Toxoplasma gondii; assay: Viability of extracellular tachyzoites, Sytox Green exclusion test; format: cell-based; details: Toxoplasma gondii, 1 h, PBS pH 7.4, mean ± standard error of three replicates, read-out: IC50
OBSERVABLE: IC50

Task: IC50 for Nc1ccc(S(=O)(=O)Nc2ncccn2)cc1 [sulfadiazine, reference compound] ?
Result: > 1.6 mM

----------
test system: pBR322 plasmid DNA; test: Agarose gel electrophoresis, DNA cleavage; format: biochemical; settings: compound 50 (mM in the source), + H2Asc
Exercise: for every item that follows, state its recorded %Damage.
Return type: number; implicit unit %.

Task: What value of %Damage has been reported for the following molecule? Cc1ncc([N+](=O)[O-])n1CCCl.Cc1ncc([N+](=O)[O-])n1CCCl.[Cl][Zn][Cl] [[Zn(cenz)2Cl2]]
Result: 80.60

Task: Now consider Cc1ncc([N+](=O)[O-])n1CC(O)CCl (stereo not shown) [onz, reference compound] .
Result: 11.80

Task: Next entry: Cc1ncc([N+](=O)[O-])n1CC(O)CCl.Cc1ncc([N+](=O)[O-])n1CC(O)CCl.[Cl][Zn][Cl] (stereo not shown) [[Zn(onz)2Cl2]]
Result: 100

Task: Then this molecule: Cc1ncc([N+](=O)[O-])n1CCCl.Cc1ncc([N+](=O)[O-])n1CCCl.[Br][Zn][Br] [[Zn(cenz)2Br2]]
Result: 96.10

Task: Same thing, different molecule: Cc1ncc([N+](=O)[O-])n1CC(O)CCl.Cc1ncc([N+](=O)[O-])n1CC(O)CCl.[Cl-].[Cl-].[Cu+2] (stereo not shown) [[Cu(onz)2Cl2]]
Result: 100.00

Task: For Cc1n(CC(O)CCl)c([N+](=O)[O-])c[n+]1[Zn-2]([Br])([Br])[n+]1cc([N+](=O)[O-])n(CC(O)CCl)c1C (stereo not shown) [[Zn(onz)2Br2]] then?
Result: 98.2

Task: Same for Cc1ncc([N+](=O)[O-])n1CCCl.Cc1ncc([N+](=O)[O-])n1CCCl.[Cl][Cu][Cl] [[Cu(cenz)2Cl2]]
Result: 100.00

Task: Record: Cc1n(CC(O)CCl)c([N+](=O)[O-])c[n+]1[Cu-2]([Br])([Br])[n+]1cc([N+](=O)[O-])n(CC(O)CCl)c1C (stereo not shown) [[Cu(onz)2Br2]]
Result: 100.00

Task: Then Cc1ncc([N+](=O)[O-])n1CCCl.Cc1ncc([N+](=O)[O-])n1CCCl.[Br][Cu][Br] [[Cu(cenz)2Br2]] ?
Result: 100.00

Task: Please do the same for "Cc1ncc([N+](=O)[O-])n1CCCl" as well.
Result: 8.80
